Source listed as the supplement of paper PMC11208160.

# Protocol: recombinant UMI read abundance after kanamycin selection (control-corrected) (log10(CPM+1)); higher = more efficient recombination; extreme values may be limits of the assay; sequences stand for … in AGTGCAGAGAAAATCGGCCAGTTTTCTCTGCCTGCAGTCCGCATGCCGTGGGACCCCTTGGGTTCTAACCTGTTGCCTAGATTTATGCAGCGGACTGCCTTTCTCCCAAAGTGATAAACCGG…AGGTTGGTTTCACT; site = the 11-nt donor;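 note: IS621 bridge recombinase in Escherichia coli cells against a fixed T5 target plasmid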
We use 1 as the dividing line for recombinant UMI read abundance (log10): on or above the line is Yes, below is No.

Primary Sequence: CACTTGCCATGGACCGGTTTTCCCGGTAATCCGTATTTGGA (site CACTTGTCTTC)
Class: No

Primary Sequence: GGCCACCCATGGACCGGTTTTCCCGGTAATCCGTATTTGTC (site GGCCACCCTGA)
Class: No

Primary Sequence: GGATAGGCATGGACCGGTTTTCCCGGTAATCCGTATTTGCC (site GGATAGACTGG)
Class: Yes

Primary Sequence: TTAATACCATGGACCGGTTTTCCCGGTAATCCGTATTTGAG (site TTAATACCTCT)
Class: No

Primary Sequence: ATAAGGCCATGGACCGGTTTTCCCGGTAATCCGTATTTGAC (site ATAAGGTCTGT)
Class: Yes

Primary Sequence: CTCTACTCATGGACCGGTTTTCCCGGTAATCCGTATTTGCT (site CTCTACCCTAG)
Class: Yes

Primary Sequence: CCTAAAGCATGGACCGGTTTTCCCGGTAATCCGTATTTGAC (site CCTAAAGCTCT)
Class: No

Primary Sequence: CAGTCTACATGGACCGGTTTTCCCGGTAATCCGTATTTGGG (site CAGTCAACTCC)
Class: No

Primary Sequence: ATAAGTCCATGGACCGGTTTTCCCGGTAATCCGTATTTGAC (site ATAAGTCCTGT)
Class: Yes
